- EXPERIMENTAL DETAILS: Kinetic solubility of the compound in simulated intestinal fluid
- Format: physicochemical
- STATED CONDITIONS: simulated gi fluid
MEASURED METRIC: Kinetic solubility (µM)
One number for each entry, in µM.

Query O=S(=O)(CC1CC1)c1nnc(-c2cc(F)c(-c3cnc(Oc4ccccc4C(F)(F)F)c(Cl)c3)cc2F)[nH]1 yields Kinetic solubility of 101

---

- EXPERIMENTAL DETAILS: Dissociation constant, pKa of the compound by capillary electrophoresis method
- Type: physicochemical
MEASURED METRIC: pKa
Numbers only.

>  <CHEMICAL STRUCTURE>
CC(=O)NS(=O)(=O)c1cc(F)c(COc2ccc(Cl)c(Cl)c2)cc1F

>  <VALUE OBSERVED>
3.7

$$$$
>  <CHEMICAL STRUCTURE>
CS(=O)(=O)NC(=O)c1cc(F)c(COc2ccc(Cl)c(Cl)c2)cc1F

>  <VALUE OBSERVED>
3.1

$$$$
>  <CHEMICAL STRUCTURE>
CS(=O)(=O)c1nnc(-c2cc(F)c(COc3ccc(Cl)c(Cl)c3)cc2F)[nH]1

>  <VALUE OBSERVED>
4.8

$$$$
>  <CHEMICAL STRUCTURE>
O=C(O)CNC(=O)c1cc(F)c(COc2ccc(Cl)c(Cl)c2)cc1F

>  <VALUE OBSERVED>
3.4

$$$$
>  <CHEMICAL STRUCTURE>
O=C(O)c1cc(F)c(COc2ccc(Cl)c(Cl)c2)cc1F

>  <VALUE OBSERVED>
3.1

$$$$

Consider the additional compound presented here.
Query O=c1[nH]c(-c2cc(F)c(COc3ccc(Cl)c(Cl)c3)cc2F)no1 yields pKa of 4.3
